# procedure.details: Selectivity ratio of IC50 for human NCI-H226 cells to IC50 for human EBC1 cells
# Type: ADME, cell-based
measured.endpoint: Ratio IC50

Per the record, Fc1ccc(-c2cnc3nnc(C(F)(F)c4ccc5ncccc5c4)n3n2)cc1 has Ratio IC50 of > 10000

---

# procedure.details: Clearance in Sprague-Dawley rat at 2 mg/kg, iv administered as single dose
# Format: ADME, organism-based
# measurement.parameters: in vivo
measured.endpoint: clearance

For orientation, consider the following solved cases.
In [3]: df
Out[3]:
                            smiles_notation           value
0  CCCn1cc(-c2cnc3nnc(C(F)(F)c4ccc5ncccc5c4)n3n2)cn1  30.7 mL/min/kg
1  FC(F)(c1ccc2ncccc2c1)c1nnc2ncc(-c3ccco3)nn12  39.5 mL/min/kg

Please find the next compound below.
Per the record, Fc1ccc(-c2cnc3nnc(C(F)(F)c4ccc5ncccc5c4)n3n2)cc1 has clearance of 47.2 mL/min/kg

---

Each record here notes measured Cmax.
# procedure.details: Cmax in Sprague-Dawley rat at 10 mg/kg, po administered as single dose
# Assay type: ADME, organism-based
# Design: dose 10 mg/kg, route oral
# measurement.parameters: in vivo
Dear colleague, please return just the value in ng/mL, with no unit written.

                            smiles_notation  measured_endpoint  value
0  CCCn1cc(-c2cnc3nnc(C(F)(F)c4ccc5ncccc5c4)n3n2)cn1               Cmax   1610

Per the record, Fc1ccc(-c2cnc3nnc(C(F)(F)c4ccc5ncccc5c4)n3n2)cc1 has Cmax of 869

Per the record, Cn1cc(-c2cnc3nnc(C(F)(F)c4ccc5ncccc5c4)n3n2)cn1 has Cmax of 209

Per the record, FC(F)(c1ccc2ncccc2c1)c1nnc2ncc(-c3ccco3)nn12 has Cmax of 961

---

# procedure.details: Selectivity ratio of IC50 for human Calu3 cells to IC50 for human EBC1 cells
# Type: ADME, cell-based
# measurement.parameters: calu-3
measured.endpoint: Ratio IC50

Per the record, Fc1ccc(-c2cnc3nnc(C(F)(F)c4ccc5ncccc5c4)n3n2)cc1 has Ratio IC50 of > 10000

---

# Test system: NCI-H226
# procedure.details: Antiproliferative activity against human NCI-H226 cells after 72 hrs by SRB or MTT assay
# Assay type: functional, cell-based
# measurement.parameters: NCI-H226, 72 h
measured.endpoint: IC50

Per the record, Fc1ccc(-c2cnc3nnc(C(F)(F)c4ccc5ncccc5c4)n3n2)cc1 has IC50 of > 10 µM

---

# procedure.details: Selectivity ratio of IC50 for human Calu3 cells to IC50 for human MKN45 cells
# Format: ADME, cell-based
# measurement.parameters: mkn-45
measured.endpoint: Ratio IC50

Per the record, Fc1ccc(-c2cnc3nnc(C(F)(F)c4ccc5ncccc5c4)n3n2)cc1 has Ratio IC50 of > 10000

---

# procedure.details: Selectivity ratio of IC50 for human NCI-H661 cells to IC50 for mouse BAF3 cells expressing TPR-MET
# Type: ADME, cell-based
measured.endpoint: Ratio IC50

Per the record, Fc1ccc(-c2cnc3nnc(C(F)(F)c4ccc5ncccc5c4)n3n2)cc1 has Ratio IC50 of > 10000

---

# procedure.details: Antiproliferative activity against human PANC1 cells after 72 hrs by SRB or MTT assay
# Type: functional, cell-based
# measurement.parameters: PANC-1, 72 h
pIC50: −log10 of the molar value.
measured.endpoint: pIC50

Per the record, Fc1ccc(-c2cnc3nnc(C(F)(F)c4ccc5ncccc5c4)n3n2)cc1 has pIC50 of < 5.00

---

# procedure.details: Selectivity ratio of IC50 for human SPCA1 cells to IC50 for human EBC1 cells
# Assay type: ADME, cell-based
# measurement.parameters: SPCA1 cells versus EBC1 cells
measured.endpoint: selectivity ratio

Per the record, Fc1ccc(-c2cnc3nnc(C(F)(F)c4ccc5ncccc5c4)n3n2)cc1 has selectivity ratio of > 10000

---

# procedure.details: Selectivity ratio of IC50 for human SPCA4 cells to IC50 for human MKN45 cells
# Format: ADME, cell-based, SPC-A4
# measurement.parameters: SPCA4 cells versus MKN45 cells
measured.endpoint: selectivity ratio

Per the record, Fc1ccc(-c2cnc3nnc(C(F)(F)c4ccc5ncccc5c4)n3n2)cc1 has selectivity ratio of > 10000

---

# procedure.details: Volume of distribution at steady state in Sprague-Dawley rat at 10 mg/kg, iv administered as single dose
# Assay type: ADME, organism-based
# measurement.parameters: in vivo, read-out: Vdss
measured.endpoint: Vd
Form entry: enter the amount, then its unit.

Per the record, Cn1cc(-c2cnc3nnc(C(F)(F)c4ccc5ncccc5c4)n3n2)cn1 has Vd of 0.81 L/kg

---

# procedure.details: Selectivity ratio of IC50 for human SPCA4 cells to IC50 for human EBC1 cells
# Format: ADME, cell-based
# measurement.parameters: spc-a4
measured.endpoint: Ratio IC50

Per the record, Fc1ccc(-c2cnc3nnc(C(F)(F)c4ccc5ncccc5c4)n3n2)cc1 has Ratio IC50 of > 10000

---

# procedure.details: Selectivity ratio of IC50 for human SPCA4 cells to IC50 for mouse BAF3 cells expressing TPR-MET
# Assay type: ADME, cell-based
# measurement.parameters: SPCA4 cells versus BAF3 cells expressing TPR-MET
measured.endpoint: selectivity ratio

Per the record, Fc1ccc(-c2cnc3nnc(C(F)(F)c4ccc5ncccc5c4)n3n2)cc1 has selectivity ratio of > 10000

---

# procedure.details: Selectivity ratio of IC50 for human MGC803 cells to IC50 for human MKN45 cells
# Format: ADME, cell-based
# measurement.parameters: mgc-803
measured.endpoint: Ratio IC50

Per the record, Fc1ccc(-c2cnc3nnc(C(F)(F)c4ccc5ncccc5c4)n3n2)cc1 has Ratio IC50 of > 10000

---

# procedure.details: Selectivity ratio of IC50 for human BGC823 cells to IC50 for human MKN45 cells
# Format: ADME, cell-based
# measurement.parameters: bgc-823
measured.endpoint: Ratio IC50

Per the record, Fc1ccc(-c2cnc3nnc(C(F)(F)c4ccc5ncccc5c4)n3n2)cc1 has Ratio IC50 of > 10000

---

# procedure.details: AUC (0 to infinity) in Sprague-Dawley rat at 10 mg/kg, po administered as single dose
# Assay type: ADME, organism-based
# Design: dose 10 mg/kg, route oral, time infinity
# measurement.parameters: in vivo
Each record here notes measured AUC(0-inf).
Dear colleague, please return just the value in ng·h/mL, with no unit written.

For orientation, consider the following solved cases.
In [3]: df
Out[3]:
                            smiles_notation  measured_endpoint  unit_label  value
0  Cn1cc(-c2cnc3nnc(C(F)(F)c4ccc5ncccc5c4)n3n2)cn1         AUC(0-inf)     ng·h/mL    780
1  Fc1ccc(-c2cnc3nnc(C(F)(F)c4ccc5ncccc5c4)n3n2)cc1         AUC(0-inf)     ng·h/mL   2380
2  CCCn1cc(-c2cnc3nnc(C(F)(F)c4ccc5ncccc5c4)n3n2)cn1         AUC(0-inf)     ng·h/mL   3390

Please find the next molecule below.
Per the record, FC(F)(c1ccc2ncccc2c1)c1nnc2ncc(-c3ccco3)nn12 has AUC(0-inf) of 2040

---

# procedure.details: Selectivity ratio of IC50 for human MGC803 cells to IC50 for mouse BAF3 cells expressing TPR-MET
# Assay type: ADME, cell-based
measured.endpoint: Ratio IC50

Per the record, Fc1ccc(-c2cnc3nnc(C(F)(F)c4ccc5ncccc5c4)n3n2)cc1 has Ratio IC50 of > 10000

---

# procedure.details: Selectivity ratio of IC50 for human SPCA1 cells to IC50 for human MKN45 cells
# Format: ADME, cell-based
# measurement.parameters: SPCA1 cells versus MKN45 cells
measured.endpoint: selectivity ratio

Per the record, Fc1ccc(-c2cnc3nnc(C(F)(F)c4ccc5ncccc5c4)n3n2)cc1 has selectivity ratio of > 10000

---

# procedure.details: Oral bioavailability in Sprague-Dawley rat at 10 mg/kg administered as single dose
# Format: ADME, organism-based
# measurement.parameters: in vivo
measured.endpoint: bioavailability
Form entry: enter the amount, then its unit.

For orientation, consider the following solved cases.
>>> print(df.to_string())
                            smiles_notation  value
0  Fc1ccc(-c2cnc3nnc(C(F)(F)c4ccc5ncccc5c4)n3n2)cc1  48.3%
1  Cn1cc(-c2cnc3nnc(C(F)(F)c4ccc5ncccc5c4)n3n2)cn1   9.4%
2  FC(F)(c1ccc2ncccc2c1)c1nnc2ncc(-c3ccco3)nn12    48%

Please find the next compound below.
Per the record, CCCn1cc(-c2cnc3nnc(C(F)(F)c4ccc5ncccc5c4)n3n2)cn1 has bioavailability of 61.6%

---

# target.or.system: TPR/MET fusion protein (Mus musculus) (UniProt P16056+F6ZDS4)
# Sequence (F6ZDS4 whole entry partner, the tested form may be a part): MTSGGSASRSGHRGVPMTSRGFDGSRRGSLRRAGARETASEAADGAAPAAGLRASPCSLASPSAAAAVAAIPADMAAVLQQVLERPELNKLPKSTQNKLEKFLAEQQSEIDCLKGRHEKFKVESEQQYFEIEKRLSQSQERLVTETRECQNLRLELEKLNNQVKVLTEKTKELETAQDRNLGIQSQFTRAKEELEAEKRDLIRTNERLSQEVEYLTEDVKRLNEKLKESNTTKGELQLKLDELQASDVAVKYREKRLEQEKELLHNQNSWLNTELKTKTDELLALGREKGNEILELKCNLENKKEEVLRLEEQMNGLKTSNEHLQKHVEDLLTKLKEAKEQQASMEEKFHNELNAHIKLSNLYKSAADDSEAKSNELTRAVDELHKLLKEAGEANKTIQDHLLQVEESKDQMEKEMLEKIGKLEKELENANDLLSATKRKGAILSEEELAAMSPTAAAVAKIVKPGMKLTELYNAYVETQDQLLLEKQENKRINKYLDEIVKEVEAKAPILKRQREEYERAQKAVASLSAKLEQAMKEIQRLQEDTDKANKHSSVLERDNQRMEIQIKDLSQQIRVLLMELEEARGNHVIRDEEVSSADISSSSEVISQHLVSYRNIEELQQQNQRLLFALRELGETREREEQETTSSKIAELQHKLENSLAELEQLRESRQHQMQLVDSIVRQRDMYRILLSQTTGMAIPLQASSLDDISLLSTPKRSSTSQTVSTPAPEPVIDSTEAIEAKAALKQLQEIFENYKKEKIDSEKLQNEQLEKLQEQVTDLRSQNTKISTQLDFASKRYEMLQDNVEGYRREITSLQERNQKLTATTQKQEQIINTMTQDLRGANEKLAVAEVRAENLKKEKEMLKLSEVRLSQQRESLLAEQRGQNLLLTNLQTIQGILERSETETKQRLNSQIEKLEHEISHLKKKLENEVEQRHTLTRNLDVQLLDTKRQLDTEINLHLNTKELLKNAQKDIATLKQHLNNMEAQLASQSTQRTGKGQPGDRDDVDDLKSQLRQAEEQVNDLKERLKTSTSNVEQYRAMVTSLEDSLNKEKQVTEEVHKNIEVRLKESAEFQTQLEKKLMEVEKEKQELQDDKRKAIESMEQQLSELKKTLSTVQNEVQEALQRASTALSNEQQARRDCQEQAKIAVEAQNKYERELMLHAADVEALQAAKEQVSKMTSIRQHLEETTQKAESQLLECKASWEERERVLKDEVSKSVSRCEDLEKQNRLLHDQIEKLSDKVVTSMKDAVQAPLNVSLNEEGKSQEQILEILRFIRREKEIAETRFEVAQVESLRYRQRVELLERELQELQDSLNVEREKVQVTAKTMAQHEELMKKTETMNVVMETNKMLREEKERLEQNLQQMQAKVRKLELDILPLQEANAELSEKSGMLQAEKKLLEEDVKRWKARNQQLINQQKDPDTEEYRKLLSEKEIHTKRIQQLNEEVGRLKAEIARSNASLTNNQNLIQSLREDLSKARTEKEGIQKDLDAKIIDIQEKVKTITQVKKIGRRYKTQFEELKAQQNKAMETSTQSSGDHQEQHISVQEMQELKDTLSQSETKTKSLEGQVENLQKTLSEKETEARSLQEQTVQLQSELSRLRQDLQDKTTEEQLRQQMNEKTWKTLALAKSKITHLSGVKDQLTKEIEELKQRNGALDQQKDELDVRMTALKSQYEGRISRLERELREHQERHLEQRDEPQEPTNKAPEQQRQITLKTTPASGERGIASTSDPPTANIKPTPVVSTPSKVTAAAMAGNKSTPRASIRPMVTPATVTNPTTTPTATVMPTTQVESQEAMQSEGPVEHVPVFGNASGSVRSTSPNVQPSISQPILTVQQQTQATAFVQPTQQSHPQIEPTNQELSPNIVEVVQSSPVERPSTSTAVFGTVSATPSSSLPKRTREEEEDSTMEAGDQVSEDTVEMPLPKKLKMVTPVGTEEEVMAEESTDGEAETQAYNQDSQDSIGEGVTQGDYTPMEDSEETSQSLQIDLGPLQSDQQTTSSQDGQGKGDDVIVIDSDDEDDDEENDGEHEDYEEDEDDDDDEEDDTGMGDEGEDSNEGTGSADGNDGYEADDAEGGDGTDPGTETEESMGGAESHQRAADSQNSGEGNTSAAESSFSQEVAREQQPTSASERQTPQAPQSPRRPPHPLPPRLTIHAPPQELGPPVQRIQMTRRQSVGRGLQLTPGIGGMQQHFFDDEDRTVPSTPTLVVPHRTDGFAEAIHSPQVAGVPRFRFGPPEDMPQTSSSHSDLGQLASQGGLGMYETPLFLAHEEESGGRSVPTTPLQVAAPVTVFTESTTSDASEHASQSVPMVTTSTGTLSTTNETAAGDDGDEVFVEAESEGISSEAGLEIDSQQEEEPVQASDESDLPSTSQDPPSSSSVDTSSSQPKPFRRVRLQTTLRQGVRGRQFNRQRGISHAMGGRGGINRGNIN
# Sequence (P16056 25-1379 limits assumed): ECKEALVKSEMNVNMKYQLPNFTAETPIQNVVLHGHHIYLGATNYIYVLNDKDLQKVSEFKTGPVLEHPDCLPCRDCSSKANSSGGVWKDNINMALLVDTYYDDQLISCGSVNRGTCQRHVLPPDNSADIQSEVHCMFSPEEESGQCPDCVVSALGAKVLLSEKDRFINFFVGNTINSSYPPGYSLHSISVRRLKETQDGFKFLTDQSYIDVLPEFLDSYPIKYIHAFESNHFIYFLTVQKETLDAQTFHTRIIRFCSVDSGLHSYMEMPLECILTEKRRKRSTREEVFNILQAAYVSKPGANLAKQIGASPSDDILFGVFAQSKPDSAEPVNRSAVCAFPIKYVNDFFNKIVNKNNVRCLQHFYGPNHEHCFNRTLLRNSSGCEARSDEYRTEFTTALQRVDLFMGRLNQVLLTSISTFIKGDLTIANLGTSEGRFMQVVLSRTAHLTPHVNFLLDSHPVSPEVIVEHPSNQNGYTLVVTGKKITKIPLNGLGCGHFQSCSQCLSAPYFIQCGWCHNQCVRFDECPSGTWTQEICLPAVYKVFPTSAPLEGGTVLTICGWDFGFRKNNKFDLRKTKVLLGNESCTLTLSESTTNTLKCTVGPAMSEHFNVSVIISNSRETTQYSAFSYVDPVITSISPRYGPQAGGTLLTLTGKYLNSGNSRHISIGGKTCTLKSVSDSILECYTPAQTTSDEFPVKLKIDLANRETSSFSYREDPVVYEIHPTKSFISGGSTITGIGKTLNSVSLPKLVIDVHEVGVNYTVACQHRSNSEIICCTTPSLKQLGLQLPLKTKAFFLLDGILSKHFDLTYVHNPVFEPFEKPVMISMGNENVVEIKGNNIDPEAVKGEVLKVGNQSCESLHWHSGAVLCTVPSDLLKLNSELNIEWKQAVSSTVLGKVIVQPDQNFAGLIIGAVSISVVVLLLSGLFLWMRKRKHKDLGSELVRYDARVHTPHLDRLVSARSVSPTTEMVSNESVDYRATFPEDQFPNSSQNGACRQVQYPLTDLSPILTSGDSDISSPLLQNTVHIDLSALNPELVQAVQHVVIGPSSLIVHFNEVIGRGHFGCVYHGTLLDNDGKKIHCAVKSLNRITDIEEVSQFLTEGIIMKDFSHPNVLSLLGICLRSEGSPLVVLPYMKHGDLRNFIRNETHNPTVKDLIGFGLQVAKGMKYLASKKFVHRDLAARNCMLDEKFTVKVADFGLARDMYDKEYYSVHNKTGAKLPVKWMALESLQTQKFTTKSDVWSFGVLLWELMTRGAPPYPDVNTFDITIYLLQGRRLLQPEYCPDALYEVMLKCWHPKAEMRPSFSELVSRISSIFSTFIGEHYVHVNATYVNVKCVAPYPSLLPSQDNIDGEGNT
# procedure.details: Inhibition of TPR-MET in mouse […] cells assessed as inhibition of cell proliferation at 1 uM after 72 hrs by SRB or MTT assay relative to control
# Assay type: cell-based
Each record here notes measured inhibition.
Dear colleague, please return just the value in %, with no unit written.

For orientation, consider the following solved cases.
>>> df
                            smiles_notation                          target_or_system  measured_endpoint  unit_label  value
0  Oc1cccc(-c2cnc3nnc(Cc4c[nH]c5ccccc45)n3n2)c1  TPR/MET fusion protein (Mus musculus) (UniProt P16056+F6ZDS4)         inhibition           %    8.2
1  CCCn1cc(-c2cnc3nnc(Cc4ccc5ncccc5c4)n3n2)cn1  TPR/MET fusion protein (Mus musculus) (UniProt P16056+F6ZDS4)         inhibition           %   88.1
2  CC(C)(C)OC(=O)N1CCC(n2cc(-c3cnc4nnc(Cc5ccc6ncccc6c5)n4n3)cn2)CC1  TPR/MET fusion protein (Mus musculus) (UniProt P16056+F6ZDS4)         inhibition           %   68.9
3  c1cnc2ccc(Cc3nnc4ncc(-c5cnn(C6CCNCC6)c5)nn34)cc2c1  TPR/MET fusion protein (Mus musculus) (UniProt P16056+F6ZDS4)         inhibition           %   14.9
4  Clc1ccc(-c2cnc3nnc(Cc4ccc5ncccc5c4)n3n2)cc1  TPR/MET fusion protein (Mus musculus) (UniProt P16056+F6ZDS4)         inhibition           %   69.2

Per the record, c1csc(-c2cnc3nnc(Cc4ccc5ncccc5c4)n3n2)c1 has inhibition of 85.9

Per the record, COc1cccc(-c2cnc3nnc(Cc4ccc5ncccc5c4)n3n2)c1 has inhibition of 69.8

Per the record, Cn1cc(-c2cnc3nnc(Cc4ccc5ncccc5c4)n3n2)cn1 has inhibition of 76.9

Per the record, Clc1ccc(-c2cnc3nnc(Cc4ccc5ncccc5c4)n3n2)cc1Cl has inhibition of 82.2

Per the record, c1ccc(Cn2cc(-c3cnc4nnc(Cc5ccc6ncccc6c5)n4n3)cn2)cc1 has inhibition of 68.3

Per the record, c1ccc(COc2ccc(-c3cnc4nnc(Cc5ccc6ncccc6c5)n4n3)cc2)cc1 has inhibition of 53.8

Per the record, c1cnc2ccc(Cc3nnc4ncc(-c5cnc6ccccc6c5)nn34)cc2c1 has inhibition of 63.1

Per the record, Brc1ccc(-c2cnc3nnc(Cc4c[nH]c5ccccc45)n3n2)cc1 has inhibition of 9.9

Per the record, c1ccc(COc2ccc(-c3cnc4nnc(Cc5c[nH]c6ccccc56)n4n3)cc2)cc1 has inhibition of 26.9

Per the record, Cn1cc(-c2ccc3nnc(C(F)(F)c4ccc5ncccc5c4)n3n2)cn1 has inhibition of 70.8
